Property: neutralization IC50; scope: individual binders
molecular target: Env of MuLV; assay: cell-based or functional assay
endpoint: neutralization IC50

binder	result
8ANC3430 (antibody, V domains shown) VH: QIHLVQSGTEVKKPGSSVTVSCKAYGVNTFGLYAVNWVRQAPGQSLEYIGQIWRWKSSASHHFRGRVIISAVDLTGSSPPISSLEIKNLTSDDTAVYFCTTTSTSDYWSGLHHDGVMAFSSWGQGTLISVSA VL: DIQMTQSPSTLSASVGDTVRISCRASQSITGGWLAWYHQRPGKAPRLLIYRGSRLLGGVPSRFSGSAAGTDFTLTIANLQAEDFGTFYCQQYDTYPGTFGQGTKVEVKR	> 23 µg/mL
γ22κ5 (antibody, V domains shown) VH: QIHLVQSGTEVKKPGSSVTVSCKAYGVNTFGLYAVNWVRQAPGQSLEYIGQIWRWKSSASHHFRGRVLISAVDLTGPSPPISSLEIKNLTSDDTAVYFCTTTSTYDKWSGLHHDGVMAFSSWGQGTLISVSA VL: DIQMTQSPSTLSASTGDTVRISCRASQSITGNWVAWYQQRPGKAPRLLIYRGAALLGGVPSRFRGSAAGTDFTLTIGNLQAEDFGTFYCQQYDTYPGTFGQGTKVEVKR	> 30 µg/mL
γ3κ11 (antibody, V domains shown) VH: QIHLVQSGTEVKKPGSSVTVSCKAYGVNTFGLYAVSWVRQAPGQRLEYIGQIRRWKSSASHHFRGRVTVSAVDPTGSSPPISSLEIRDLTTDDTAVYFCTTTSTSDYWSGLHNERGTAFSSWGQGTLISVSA VL: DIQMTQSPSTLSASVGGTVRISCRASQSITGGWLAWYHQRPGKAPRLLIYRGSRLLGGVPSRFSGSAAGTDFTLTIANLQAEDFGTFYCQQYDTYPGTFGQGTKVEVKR	> 30 µg/mL
γ59κ61 (antibody, V domains shown) VH: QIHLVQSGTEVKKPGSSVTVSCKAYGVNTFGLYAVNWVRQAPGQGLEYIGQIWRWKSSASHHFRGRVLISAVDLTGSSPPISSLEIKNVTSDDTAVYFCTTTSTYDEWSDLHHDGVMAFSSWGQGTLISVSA VL: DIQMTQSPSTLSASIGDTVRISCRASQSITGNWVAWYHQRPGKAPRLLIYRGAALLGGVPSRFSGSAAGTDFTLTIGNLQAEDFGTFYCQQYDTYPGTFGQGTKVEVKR	> 15 µg/mL
γ52κ3 (antibody, V domains shown) VH: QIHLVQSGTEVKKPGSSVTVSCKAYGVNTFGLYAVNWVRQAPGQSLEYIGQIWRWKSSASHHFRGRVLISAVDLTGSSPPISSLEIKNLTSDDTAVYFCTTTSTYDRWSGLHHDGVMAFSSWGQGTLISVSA VL: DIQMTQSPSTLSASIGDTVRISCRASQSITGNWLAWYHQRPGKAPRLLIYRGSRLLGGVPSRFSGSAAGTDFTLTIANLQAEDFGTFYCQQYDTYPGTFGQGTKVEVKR	> 30 µg/mL
γ52κ11 (antibody, V domains shown) VH: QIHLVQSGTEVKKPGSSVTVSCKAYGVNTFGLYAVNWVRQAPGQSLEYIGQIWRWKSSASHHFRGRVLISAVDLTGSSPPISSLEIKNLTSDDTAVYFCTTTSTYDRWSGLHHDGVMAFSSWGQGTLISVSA VL: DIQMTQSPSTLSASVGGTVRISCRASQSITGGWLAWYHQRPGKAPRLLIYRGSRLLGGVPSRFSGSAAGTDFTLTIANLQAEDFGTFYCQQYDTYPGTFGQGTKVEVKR	> 30 µg/mL
γ23κ18 (antibody, V domains shown) VH: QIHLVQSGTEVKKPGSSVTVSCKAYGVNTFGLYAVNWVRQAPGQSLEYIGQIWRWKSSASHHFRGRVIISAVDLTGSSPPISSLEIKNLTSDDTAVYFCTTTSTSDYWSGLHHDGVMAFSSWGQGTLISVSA VL: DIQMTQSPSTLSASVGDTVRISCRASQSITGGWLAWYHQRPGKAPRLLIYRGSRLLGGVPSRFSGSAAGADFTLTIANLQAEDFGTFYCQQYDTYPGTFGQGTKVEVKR	> 30 µg/mL
γ22κ11 (antibody, V domains shown) VH: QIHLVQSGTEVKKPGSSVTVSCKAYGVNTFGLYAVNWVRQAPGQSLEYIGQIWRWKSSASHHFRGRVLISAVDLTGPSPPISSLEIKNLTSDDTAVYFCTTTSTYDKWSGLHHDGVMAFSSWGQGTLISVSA VL: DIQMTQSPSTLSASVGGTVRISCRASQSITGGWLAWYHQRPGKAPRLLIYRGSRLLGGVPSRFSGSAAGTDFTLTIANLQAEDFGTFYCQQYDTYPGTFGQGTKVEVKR	> 30 µg/mL
γ44κ61 (antibody, V domains shown) VH: QIHLVQSGTEVKKPGSSVTVSCKAYEVNTFGLYAVNWVRQAPGQSLEYIGQIWRWKSSASHHFRGRVLISAVDLTGSSPPISSLEIKNVTSDDTAVYFCTTTSTHDKWSGLHHDGVMAFSSWGQGTLISVSA VL: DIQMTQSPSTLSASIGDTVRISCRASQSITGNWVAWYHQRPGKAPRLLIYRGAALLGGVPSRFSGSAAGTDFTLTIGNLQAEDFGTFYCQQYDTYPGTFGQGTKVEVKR	> 15 µg/mL
γ52κ61 (antibody, V domains shown) VH: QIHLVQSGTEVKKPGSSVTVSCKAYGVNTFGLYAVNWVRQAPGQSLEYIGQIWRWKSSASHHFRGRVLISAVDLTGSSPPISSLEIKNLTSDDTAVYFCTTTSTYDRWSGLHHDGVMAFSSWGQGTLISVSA VL: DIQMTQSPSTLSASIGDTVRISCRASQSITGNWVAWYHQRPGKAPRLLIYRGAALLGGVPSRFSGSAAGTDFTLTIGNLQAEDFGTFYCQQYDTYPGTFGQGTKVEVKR	> 15 µg/mL

Every entry's value here was drawn from patent US20180171001A1.
